Molecular target: T1, alpha-s1 casein from Bos taurus
T1 chain: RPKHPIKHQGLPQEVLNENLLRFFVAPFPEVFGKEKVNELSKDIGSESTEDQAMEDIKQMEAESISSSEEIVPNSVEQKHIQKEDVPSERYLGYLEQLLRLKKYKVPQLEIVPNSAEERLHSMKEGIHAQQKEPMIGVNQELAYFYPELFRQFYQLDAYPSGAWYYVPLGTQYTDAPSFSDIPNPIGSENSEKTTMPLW
metric: (αSN1-1)/(αSN1), 6 hours, 11° C.
Lab note: write the figure by itself, no unit.

# annotated cases, reported (αSN1-1)/(αSN1), 6 hours, 11° C. shown
protein	(αSN1-1)/(αSN1), 6 hours, 11° C.
camel chymosin variant #167 (I297V) (protein) GKVAREPLTSYLDSQYFGKIYIGTPPQEFTVVFDTGSSDLWVPSIYCKSNVCKNHHRFDPRKSSTFRNLGKPLSIHYGTGSMEGFLGYDTVTVSNIVDPNQTVGLSTEQPGEVFTYSEFDGILGLAYPSLASEYSVPVFDNMMDRHLVARDLFSVYMDRNGQGSMLTLGAIDPSYYTGSLHWVPVTLQQYWQFTVDSVTINGVAVACVGGCQAILDTGTSVLFGPSSDILKIQMAIGATENRYGEFDVNCGNLRSMPTVVFEINGRDYPLSPSAYTSKDQGFCTSGFQGDNNSELWVLGDVFIREYYSVFDRANNRVGLAKAI	0.7
camel chymosin variant #166 (I297T) (protein) GKVAREPLTSYLDSQYFGKIYIGTPPQEFTVVFDTGSSDLWVPSIYCKSNVCKNHHRFDPRKSSTFRNLGKPLSIHYGTGSMEGFLGYDTVTVSNIVDPNQTVGLSTEQPGEVFTYSEFDGILGLAYPSLASEYSVPVFDNMMDRHLVARDLFSVYMDRNGQGSMLTLGAIDPSYYTGSLHWVPVTLQQYWQFTVDSVTINGVAVACVGGCQAILDTGTSVLFGPSSDILKIQMAIGATENRYGEFDVNCGNLRSMPTVVFEINGRDYPLSPSAYTSKDQGFCTSGFQGDNNSELWTLGDVFIREYYSVFDRANNRVGLAKAI	0.9
camel chymosin variant #149 (Q288R) (protein) GKVAREPLTSYLDSQYFGKIYIGTPPQEFTVVFDTGSSDLWVPSIYCKSNVCKNHHRFDPRKSSTFRNLGKPLSIHYGTGSMEGFLGYDTVTVSNIVDPNQTVGLSTEQPGEVFTYSEFDGILGLAYPSLASEYSVPVFDNMMDRHLVARDLFSVYMDRNGQGSMLTLGAIDPSYYTGSLHWVPVTLQQYWQFTVDSVTINGVAVACVGGCQAILDTGTSVLFGPSSDILKIQMAIGATENRYGEFDVNCGNLRSMPTVVFEINGRDYPLSPSAYTSKDQGFCTSGFRGDNNSELWILGDVFIREYYSVFDRANNRVGLAKAI	1
camel chymosin variant #139 (F223L) (protein) GKVAREPLTSYLDSQYFGKIYIGTPPQEFTVVFDTGSSDLWVPSIYCKSNVCKNHHRFDPRKSSTFRNLGKPLSIHYGTGSMEGFLGYDTVTVSNIVDPNQTVGLSTEQPGEVFTYSEFDGILGLAYPSLASEYSVPVFDNMMDRHLVARDLFSVYMDRNGQGSMLTLGAIDPSYYTGSLHWVPVTLQQYWQFTVDSVTINGVAVACVGGCQAILDTGTSVLLGPSSDILKIQMAIGATENRYGEFDVNCGNLRSMPTVVFEINGRDYPLSPSAYTSKDQGFCTSGFQGDNNSELWILGDVFIREYYSVFDRANNRVGLAKAI	1.2
camel chymosin variant #156 (D290S) (protein) GKVAREPLTSYLDSQYFGKIYIGTPPQEFTVVFDTGSSDLWVPSIYCKSNVCKNHHRFDPRKSSTFRNLGKPLSIHYGTGSMEGFLGYDTVTVSNIVDPNQTVGLSTEQPGEVFTYSEFDGILGLAYPSLASEYSVPVFDNMMDRHLVARDLFSVYMDRNGQGSMLTLGAIDPSYYTGSLHWVPVTLQQYWQFTVDSVTINGVAVACVGGCQAILDTGTSVLFGPSSDILKIQMAIGATENRYGEFDVNCGNLRSMPTVVFEINGRDYPLSPSAYTSKDQGFCTSGFQGSNNSELWILGDVFIREYYSVFDRANNRVGLAKAI	0.5
camel chymosin variant #145 (F223I) (protein) GKVAREPLTSYLDSQYFGKIYIGTPPQEFTVVFDTGSSDLWVPSIYCKSNVCKNHHRFDPRKSSTFRNLGKPLSIHYGTGSMEGFLGYDTVTVSNIVDPNQTVGLSTEQPGEVFTYSEFDGILGLAYPSLASEYSVPVFDNMMDRHLVARDLFSVYMDRNGQGSMLTLGAIDPSYYTGSLHWVPVTLQQYWQFTVDSVTINGVAVACVGGCQAILDTGTSVLIGPSSDILKIQMAIGATENRYGEFDVNCGNLRSMPTVVFEINGRDYPLSPSAYTSKDQGFCTSGFQGDNNSELWILGDVFIREYYSVFDRANNRVGLAKAI	1.2

Item: camel chymosin variant #158 (L295F) (protein) GKVAREPLTSYLDSQYFGKIYIGTPPQEFTVVFDTGSSDLWVPSIYCKSNVCKNHHRFDPRKSSTFRNLGKPLSIHYGTGSMEGFLGYDTVTVSNIVDPNQTVGLSTEQPGEVFTYSEFDGILGLAYPSLASEYSVPVFDNMMDRHLVARDLFSVYMDRNGQGSMLTLGAIDPSYYTGSLHWVPVTLQQYWQFTVDSVTINGVAVACVGGCQAILDTGTSVLFGPSSDILKIQMAIGATENRYGEFDVNCGNLRSMPTVVFEINGRDYPLSPSAYTSKDQGFCTSGFQGDNNSEFWILGDVFIREYYSVFDRANNRVGLAKAI | (αSN1-1)/(αSN1), 6 hours, 11° C.: 0.7

For this protein ( camel chymosin variant #159 (L295I) (protein) GKVAREPLTSYLDSQYFGKIYIGTPPQEFTVVFDTGSSDLWVPSIYCKSNVCKNHHRFDPRKSSTFRNLGKPLSIHYGTGSMEGFLGYDTVTVSNIVDPNQTVGLSTEQPGEVFTYSEFDGILGLAYPSLASEYSVPVFDNMMDRHLVARDLFSVYMDRNGQGSMLTLGAIDPSYYTGSLHWVPVTLQQYWQFTVDSVTINGVAVACVGGCQAILDTGTSVLFGPSSDILKIQMAIGATENRYGEFDVNCGNLRSMPTVVFEINGRDYPLSPSAYTSKDQGFCTSGFQGDNNSEIWILGDVFIREYYSVFDRANNRVGLAKAI ), measured (αSN1-1)/(αSN1), 6 hours, 11° C. is 0.6
